# TARGET OR TEST SYSTEM: T1, TPP-2305 (hTNFRSF12Aaa28-80) (Human, UniProt Q9NP84 28-80)
# T1 construct: monomeric extracellular domain, bought; also called purified recombinant human TWEAKR protein; soluble monomeric TWEAKR
# EXPERIMENTAL DETAILS: SPR (Biacore T100), IgG captured, TPP-2305 injected, 1:1 model
MEASURED ATTRIBUTE: kon (M⁻¹ s⁻¹)
Answer in M⁻¹ s⁻¹, number only, no unit symbol.

Please indicate kon recorded for TPP-2148 (antibody, human IgG1, kappa, V domains shown, Human IgG1) VH: EVQLLESGGGLVQPGGSLRLSCAASGFTFSPYPMMWVRQAPGKGLEWVSYISPSGGKTHYADSVKGRFTISRDNSKNTLYLQMNSLRAEDTAVYYCARGGDTYFDYFDYWGQGTLVTVSS VL: DIQMTQSPATLSASVGDRVTITCRASQSISSYLNWYQQKPGKAPKLLIYQASSLQSGVPSRFSGSGSGTDFTLTISSLQPEDFATYYCQQSYTSPFITFGPGTKVEIKR
5.1e+06

Please indicate kon recorded for TPP-2149 (antibody, human IgG1, kappa, V domains shown, Human IgG1) VH: EVQLLESGGGLVQPGGSLRLSCAASGFTFSPYPMIWVRQAPGKGLEWVSYISPSGGKTHYADSVKGRFTISRDNSKNTLYLQMNSLRAEDTAVYYCARGGDTYFDYFDYWGQGTLVTVSS VL: DIQMTQSPATLSASVGDRVTITCRASQSISGYLNWYQQKPGKAPKLLIYQASSLQSGVPSRFSGSGSGTDFTLTISSLQPEDFATYYCQQSYTSPFITFGPGTKVEIKR
8.4e+06

Please indicate kon recorded for TPP-883 (antibody, human IgG1, kappa, V domains shown, Human IgG1; parent antibody from the phage library) VH: EVQLLESGGGLVQPGGSLRLSCAASGFTFSPYPMMWVRQAPGKGLEWVSYISPSGGKTHYADSVKGRFTISRDNSKNTLYLQMNSLRAEDTAVYYCARGGDGYFDYFDYWGQGTLVTVSS VL: DIQMTQSPATLSASVGDRVTITCRASQSISSYLNWYQQKPGKAPKLLIYAASSLQSGVPSRFSGSGSGTDFTLTISSLQPEDFATYYCQQSYSSPGITFGPGTKVEIKR
4.4e+06

Please indicate kon recorded for P3G5(TPP-2195) (antibody, mouse IgG2a, kappa, V domains shown, Murine IgG2a; variable domains from WO2009/140177 with constant region added) VH: QVQLQQSGPEVVRPGVSVKISCKGSGYTFTDYGIHWVKQSHAKSLEWIGVISTYNGYTNYNQKFKGKATMTVDKSSSTAYMELARLTSEDSAIYYCARAYYGNLYYAMDYWGQGTSVTVSS VL: DIVLTQSPASLAVSLGQRATISCRANKSVSTSSYSYMHWYQQKPGQPPKLLIKYASNLESGVPARFSGSGSGTDFILNIHPVEEEDAATYYCQHSRELPFTFGSGTKLEIKR
2.31e+06

Please indicate kon recorded for P4A8(TPP-1324) (antibody, human IgG1, kappa, V domains shown, Human IgG1; variable domains from WO2009/140177 with constant region added) VH: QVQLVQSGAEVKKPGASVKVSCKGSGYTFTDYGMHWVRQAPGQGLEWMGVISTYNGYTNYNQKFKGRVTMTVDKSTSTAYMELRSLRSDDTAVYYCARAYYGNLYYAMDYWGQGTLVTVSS VL: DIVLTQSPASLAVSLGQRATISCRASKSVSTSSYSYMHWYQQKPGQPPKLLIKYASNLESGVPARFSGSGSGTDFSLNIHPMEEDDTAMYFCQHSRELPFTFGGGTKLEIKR
1.2e+06
